Record form. Attribute: 5-HT1Dβ / 5-HT1Dα. Fill in for each entry.
Target: 5-HT1Dα (Homo sapiens)
Sequence (P28221 whole entry): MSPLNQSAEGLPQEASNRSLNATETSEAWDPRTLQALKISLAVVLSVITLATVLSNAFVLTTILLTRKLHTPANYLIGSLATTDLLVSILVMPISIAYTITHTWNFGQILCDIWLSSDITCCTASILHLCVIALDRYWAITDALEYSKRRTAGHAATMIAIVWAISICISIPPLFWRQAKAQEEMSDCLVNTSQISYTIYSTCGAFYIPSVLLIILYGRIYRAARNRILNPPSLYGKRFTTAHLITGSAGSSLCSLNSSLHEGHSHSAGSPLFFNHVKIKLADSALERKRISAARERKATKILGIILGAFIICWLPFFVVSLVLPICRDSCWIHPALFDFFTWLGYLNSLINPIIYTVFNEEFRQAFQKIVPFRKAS
Assay: biochemical
Type: binding
Details: ratio of Ki values, selectivity for 5-HT1Dα over 5-HT1Dβ
One number for each entry.

Some solved cases for reference:
Cc1cc(Br)cc(C)c1CC1=NCCN1.Cl = 21
Cc1cc(C(C)(C)C)cc(C)c1CC1=NCCN1Cc1ccccc1.Cl = 62
Cl.c1ccc2cc(CC3=NCCN3)ccc2c1 = 9
Cc1cc(C(C)(C)C)cc(C)c1CC(=N)N = 46
Cc1cc(C(C)C)cc(C)c1CC1=NCCN1.Cl = 23

Hi there! I need 5-HT1Dβ / 5-HT1Dα for each item below, if you can.
1. CC(C)c1ccc(CC2=NCCN2)cc1.Cl
2. Cc1cc(C)c(CC2=NCCN2)c(C)c1.Cl
3. Cc1cc(C(C)(C)C)ccc1CC1=NCCN1.Cl

Response:
1. 8
2. 20
3. 105

====

Target: 5-HT1Dβ (Homo sapiens)
Sequence (P28222 whole entry): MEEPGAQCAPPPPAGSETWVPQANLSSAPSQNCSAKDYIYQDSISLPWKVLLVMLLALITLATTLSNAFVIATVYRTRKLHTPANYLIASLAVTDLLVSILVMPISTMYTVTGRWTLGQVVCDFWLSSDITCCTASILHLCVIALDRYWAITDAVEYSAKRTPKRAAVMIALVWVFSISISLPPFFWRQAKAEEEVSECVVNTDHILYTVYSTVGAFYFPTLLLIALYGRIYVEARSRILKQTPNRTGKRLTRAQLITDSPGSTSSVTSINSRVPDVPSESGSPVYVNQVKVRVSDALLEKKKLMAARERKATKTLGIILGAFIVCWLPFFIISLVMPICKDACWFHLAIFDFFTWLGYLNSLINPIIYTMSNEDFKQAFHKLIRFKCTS
Test: Binding affinity, 3H-serotonin displacement, membranes of recombinant cells expressing 5-HT1Dβ
Where a name gives a salt, the structure may show the parent alone.
What Ki was measured for each of the following?
Note: a bare number is incomplete; add the unit.

Cc1cc(C(C)(C)C)cc(C)c1CC1=NCCN1 [Example 5c, hydrochloride] = 14.9 nM

Query: Dear colleague, I am looking for the recorded Ki of the following compound: Cl.c1ccc2cc(CC3=NCCN3)ccc2c1 [Example 5g, hydrochloride]
Response: 1160 nM

====

Molecular target: UniProt:P28221
Experiment: biochemical
Type: binding
Conditions: 3H-serotonin radioligand, 60 minute incubation at 22° C.; read-out: 5-HT1Dα Kl
Structures can show the parent of a compound that is named as a salt.
outcome-measure: Ki (nM)
One number for each entry, in nM.

Cc1cc(C(C)(C)C)ccc1CC1=NCCN1.Cl [Example 5k, hydrochloride] = 6.8
Cc1cc(C(C)(C)C)cc(C)c1CC1=NCCN1Cc1ccccc1.Cl [Example 5i, hydrochloride] = 30
Cc1cc(C(C)(C)C)cc(C)c1CC1=NCCCN1.Cl [Example 5j, hydrochloride] = 35
Cc1cc(Br)cc(C)c1CC1=NCCN1.Cl [Example 5d, hydrochloride] = 74
CC(C)(C)c1ccc(CC2=NCCN2)cc1 [Example 5b, hydrochloride] = 105
CC(C)c1ccc(CC2=NCCN2)cc1.Cl [Example 5a, Hydrochloride] = 340

Let's switch to this compound now.
Query: Look up Ki for this compound: Cc1cc(C(C)(C)C)cc(C)c1CC(=N)N [Example 6]
Response: 13

====

Target: 5-HT1Dβ (Homo sapiens)
Assay: Binding affinity, 3H-serotonin displacement, membranes of recombinant cells expressing 5-HT1Dβ
Conditions: 3H-serotonin radioligand, 60 minute incubation at 22° C.; read-out: 5-HT1Dβ Kl
pKi: −log10 of the molar value.
Quick rule: pKi of at least 6 means 1.0, below that means 0.0.

Cc1cc(C)c(CC2=NCCN2)c(C)c1.Cl [Example 5e, hydrochloride] = 0.0

Next:
Query: Dear colleague, could you confirm whether Cc1cc(C(C)(C)C)cc(C)c1CC1=NCCN1Cc1ccccc1.Cl [Example 5i, hydrochloride] has pKi at or above 6?
Response: 0.0

====

Can you tell me pEC50 for the items I'm about to list?
Target: 5-HT1D receptor (Oryctolagus cuniculus)
Construct: Ring segments of the vein (4-5 mm in length) were cut and the endothelium gently removed; from tissue; host or cells: saphenous vein rings, endothelium removed, male New Zealand White rabbit
Sequence (P49144 whole entry): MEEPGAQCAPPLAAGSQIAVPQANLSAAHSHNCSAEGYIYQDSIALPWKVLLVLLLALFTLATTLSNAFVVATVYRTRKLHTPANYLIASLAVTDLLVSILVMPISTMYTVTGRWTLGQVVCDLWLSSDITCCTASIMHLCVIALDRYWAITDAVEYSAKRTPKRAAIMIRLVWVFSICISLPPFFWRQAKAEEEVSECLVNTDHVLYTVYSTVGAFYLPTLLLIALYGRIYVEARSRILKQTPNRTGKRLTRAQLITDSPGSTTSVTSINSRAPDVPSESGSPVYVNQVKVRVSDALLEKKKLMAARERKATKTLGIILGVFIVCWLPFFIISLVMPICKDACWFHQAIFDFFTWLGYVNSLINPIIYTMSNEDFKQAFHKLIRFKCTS
Experiment: 5-HT1D receptor agonist assay: contraction of isolated rabbit saphenous vein
Type: cell-based
Conditions: rabbit isolated saphenous vein; prazosin, idazoxan and indomethacin (1 μM) present; 50% of the compound's own maximum contraction; 37° C., pH 7.4; read-out: EC50
Answers are plain numbers, as −log10 of the molar value.

CC(C)(C)c1ccc(CC2=NCCN2)cc1 [drawing 22] = 5.54

Query: Consider the compound Cc1cc(C(C)(C)C)cc(C)c1CC(=N)N [drawing 24] and give its measured pEC50.
Response: 7.64

====

Target: 5-HT1Dβ (Homo sapiens)
Assay: Binding affinity, 3H-serotonin displacement, membranes of recombinant cells expressing 5-HT1Dβ
Settings: 3H-serotonin radioligand, 60 minute incubation at 22° C.; read-out: 5-HT1Dβ Kl
pKi: −log10 of the molar value. Counter-ions that a name gives are not always drawn.
Values of pKi greater than or equal to 6 map to satisfied; values below map to not satisfied.

Cc1cc(C(C)(C)C)cc(C)c1CC(=N)N = satisfied
Cc1cc(Br)cc(C)c1CC1=NCCN1.Cl [Example 5d, hydrochloride] = not satisfied
Cc1cc(C(C)(C)C)c(O)c(C)c1CC1=NCCN1 [oxymetazoline, reference compound] = satisfied

Query: Reported pKi reaches at least 6 for CC(C)(C)c1ccc(CC2=NCCN2)cc1 [Example 5b, hydrochloride] ?
Response: not satisfied

Query: Param item: Cc1cc(C(C)(C)C)cc(C)c1CC1=NCCCN1.Cl [Example 5j, hydrochloride]
Response: not satisfied

Query: Likewise for Cc1cc(C(C)C)cc(C)c1CC1=NCCN1.Cl [Example 5f, hydrochloride] ?
Response: satisfied

Query: Please answer likewise for CC(C)c1ccc(CC2=NCCN2)cc1.Cl [Example 5a, Hydrochloride]
Response: not satisfied
